System: A549-ACTB-RAB5A
measurement description: phenotypically active (imaging signature differs from DMSO and reproducible) at any of 0.3-9 uM (binary (1 = active, 0 = inactive)); higher = active
condition: treatment time: 24 h
assay metric: phenotypically active

Request: Given the entry COc1cc2nc(N3CCN(C(=O)C4COc5ccccc5O4)CC3)nc(N)c2cc1OC (centres undefined) [doxazosin] , report its measured phenotypically active.
Response: 1 (active)

Request: Subsequent entry: CCCCNNC(=O)c1ccc(Br)cc1
Response: 1 (active)

Request: Would you mind doing CC[C@H](Nc1ncnc2[nH]cnc12)c1nc2cccc(F)c2c(=O)n1-c1ccccc1 [idelalisib] as well?
Response: 1 (active)

Request: Also check CC(C)CNc1nc(-c2cccc3ncccc23)cn2c(-c3ccc(C(=O)NC4CC4)cc3)cnc12
Response: 1 (active)

Request: Follow-up item: CC(C)(C)c1ccc(C(=O)Nc2cn3cc(-n4ccnc4)ccc3n2)cc1
Response: 0 (inactive)

Request: Another: CC(=O)[C@H]1CC[C@H]2[C@@H]3CCC4=CC(=O)CC[C@]4(C)[C@H]3CC[C@]12C [progesterone]
Response: 0 (inactive)

Request: Please answer likewise for O=c1cc(-c2ccc(O)cc2)oc2cc(O)cc(O)c12 [Apigenin]
Response: 0 (inactive)

Request: Follow-up entry: Nc1ncnc2c1c(-c1cnc3[nH]ccc3c1)nn2C1CCCC1
Response: 1 (active)

Request: Now try CC[C@]12CCCN3CCc4c(n(c5ccccc45)C(=O)C1)[C@@H]32 [Eburnamonine (-)] .
Response: 1 (active)

Numbers sourced from the supplement of paper PMC7411054.
